Exercise: state measured microsomal CLint at 1 uM for each of the compounds provided.
# ASSAY OVERVIEW: Metabolic stability in human hepatic microsome
# Assay type: in vitro ADME
# REPORTED CONDITIONS: microsomes, pH 7.4; human hepatic microsome, NADPH(+); read-out: CL NADPH(+)
Starred links: 1 amine or outer side, 2 acyl side, 3 side chain; linkers in the order of their positions; H or OH if unused. Positions of bridges follow the written chain, without caps; N, C: chain ends. Non-standard residues stand in square brackets, D forms with d. Residues, ends and D or L forms follow the SMILES beside them. *: point of attachment. NMeF = CN[C@@H](Cc1ccccc1)C(=O)O; NMeGABA = CN(CCCC(=O)[*:2])[*:1]; NMeL = CN[C@@H](CC(C)C)C(=O)O; NMeV = CN[C@H](C(=O)O)C(C)C; NMeA = CN[C@@H](C)C(=O)O; Piperidide = C1CCN(*)CC1; Sar = CNCC(=O)O
Answer with a number only, understood to be in µL/min/mg.

Q: Can you look up the measured microsomal CLint at 1 uM of CC[C@H](C)[C@@H]1NC(=O)CN(C)C(=O)[C@H](Cc2ccccc2)N(C)C(=O)[C@H]([C@@H](C)O)NC(=O)[C@H](CC(C)C)N(C)C(=O)[C@H](C)N(C)C(=O)CCCN(C)C(=O)C[C@@H](C(=O)N(C)[C@@H](Cc2ccccc2)C(=O)N[C@@H](C)C(=O)N2CCCCC2)NC(=O)[C@H](C(C)C)N(C)C(=O)[C@H](CC(C)C)N(C)C1=O [DP-374] ([NMeGABA][NMeA][NMeL]T[NMeF][Sar]I[NMeL][NMeV]D[NMeF]A-Piperidide; lactam N-10) for me?
Result: 53

Q: Follow-up item: CC(C)C[C@H]1C(=O)N(C)[C@@H](C)C(=O)N[C@@H](C)C(=O)N(C)[C@@H](C)C(=O)N(C)[C@@H](Cc2ccccc2)C(=O)N(C)[C@@H](C)C(=O)N[C@@H]([C@@H](C)O)C(=O)N(C)[C@@H](C)C(=O)N(C)[C@@H](C)C(=O)N[C@H](C(=O)N(C)[C@@H](Cc2ccccc2)C(=O)N[C@@H](C)C(=O)N2CCCCC2)CC(=O)N(C)[C@@H](C)C(=O)N1C [DP-368] ([NMeA][NMeL][NMeA]A[NMeA][NMeF][NMeA]T[NMeA][NMeA]D[NMeF]A-Piperidide; lactam N-11)
Result: 6
